# Experiment Description: soluble on expression in E. coli; label from the status in PepcDB or PDB records
Readout Type: soluble on expression in E. coli

MGSDKIHHHHHHMRVLVKLSGEALSGEGGRGFDPERVNYIVNEIKSAIEEGFKIGIVVGAGNLFRGVELKNLTMTRADQIGLLGTVMNSVYLKDIFERSGLKARIYSQIVNLPDVERVNYDSIESALRENSILIFAGGTSNPFFTTDTAAVLRAQEMRAKLVVKATKVDGVYDKDPKKFPDAKKIPHLTFSEAMKMGLKVMDAEAFALCKKLGITVKVINFFEPGTLLKALKGEDVGSTVVPD : not soluble
MTLLLPRRRFSALLDHIKNWTSSIRADKQYRSFSTGDLVSPSQPSAFEPDFMEMEFGATPTTSSLPSHFDDNDLVPVEFKKSGVKLIPQGTRKAEKAKKFGSFEELSKVKLEDIHRAQSWFFVDVDPKSAERILMSNGFSDSSFLISFFRQKYVLSIWRKTKVEHLVIRNYQKKNGTMAFQLDIDRSFKNLVELTEYYTKNKSYVLCTKLSKGVSRPRRNPDTRTRA : not soluble

Values from the DeepSol protein solubility set
